Here is a set of compounds with reported pIC50 for human PDE10A2 (Homo sapiens (Human)), compiled from the literature.
One number for each entry, as −log10 of the molar value.

Batch: pIC50 for all items listed.
1. Cc1ccc(O)c2nc(CCc3ccc4cc(F)ccc4n3)nn12
2. Cc1c(-c2ccc(-c3ccccc3-c3ccccc3)cc2)nc2ccc(F)cc2c1CO
3. CC1(C)C(=O)N(C2CCN(c3ncc4ccc(Cl)cc4n3)CC2)c2nccnc21
4. COc1cccc([C@@H]2CN(c3ncnc4cc(OC)c(OC)cc34)CCN2)c1
5. CC(C)CNC(=O)c1c(NC(=O)c2nc(C3CC3)cnc2Nc2cncnc2)cnn1C

1: 7.07; 2: 8.38; 3: 7.06; 4: 6.22; 5: 8.36

Batch: pIC50 for all items listed.
1. Cc1ncc(C)n2nc(CCc3nc(N4CCCC4)nn3CC(F)F)nc12
2. Cn1ncc(C(=O)NC2CCC2)c1C(=O)Nc1ccn2cc(-c3ccccc3)nc2n1
3. Cc1ncc(C)n2nc(CCc3c[nH]c(-c4cncs4)n3)nc12
4. Cc1nc2ccc(C3CC3)nc2n2c(-c3cc(O)ccc3Cl)nnc12
5. Cn1c(COc2ccc(-n3ccnc3-c3ccncc3)cc2)nc2ccccc21
6. O=c1n(C2CCCC2)c2cccnc2n1[C@H]1C[C@H](Nc2nc3ccccc3s2)C1
7. Nc1nccn2c([C@H]3CCCC(F)(F)C3)nnc12
8. Cc1ncc(C)n2nc(CCc3ccc4cc(Cl)cc(F)c4n3)nc12

1: 8.49; 2: 7.68; 3: 8.19; 4: 7.82; 5: 7.54; 6: 9.88; 7: 4.81; 8: 6.62

Batch: pIC50 for all items listed.
1. O=c1[nH]c2cccnc2n1[C@H]1C[C@H](Nc2nc3ccc(F)cc3s2)C1
2. Cn1ncc(NC(=O)c2nc(C3CC3)cnc2Nc2cncnc2)c1C(=O)NCC(F)(F)F

9.18
8.68

###

Here is a set of compounds with reported IC50 for human PDE10A2 (Homo sapiens (Human), UniProt Q9Y233), compiled from the literature.
Numbers only, in nM.

Example cases with answers are listed next.
Compound | Display unit | IC50
Cc1ncc(C)n2nc(CCc3cn(C)c(-c4nccs4)n3)nc12 | nM | 7.7
CC1CCN(c2nnc3c(N)nccn23)C(C)C1 (racemic) | nM | 7100
CC1(C)C(=O)N([C@H]2C[C@@H](Nc3nc4ccccc4s3)C2)c2ncccc21 | nM | 1.26

# lookup: IC50 of `Cc1c(C(F)(F)F)nc2ccc(C#Cc3nc(N4CCCC4)n(C)n3)nn12`
4

###

pIC50: −log10 of the molar value.
Here is a set of molecules with reported pIC50 for human PDE10A2 (Homo sapiens (Human)), compiled from the literature.
Label Yes when pIC50 is at or above 8; anything below gets No.

Here are 2 molecules together with their reported answers.
Molecule | Class assignment
Cc1ccc(NC(=O)c2nc(C3CC3)cnc2Nc2cncnc2)c(C(=O)NCC(C)(C)O)n1 | Yes
N#CCCn1nc(-c2ccccn2)cc1NC(=O)c1nc(C2CC2)ccc1Nc1cncnc1 | No

Given the entry COC1CCN(c2nc3ccc(NC(=O)c4c(C(=O)N5CCC5)cnn4C)cn3n2)C1 (centres unmarked) , answer whether its pIC50 meets or surpasses 8.
Yes

Given the entry `Cn1ncc(NC(=O)c2nc(C3CC3)cnc2Nc2cccnc2)c1C(=O)N1CCC1` , answer whether its pIC50 meets or surpasses 8.
No

Given the entry `Cc1cnc2c(c1)nc(C)c1nnc(-c3cc(O)ccc3Cl)n12` , answer whether its pIC50 meets or surpasses 8.
No

Given the entry `COc1nc2cccnc2n1C1CCN(C(=O)c2nc3ccccc3[nH]2)CC1` , answer whether its pIC50 meets or surpasses 8.
Yes

###

Here is a set of compounds with reported pIC50 for human PDE10A2 (Homo sapiens (Human), UniProt Q9Y233), compiled from the literature.
Numbers only, as −log10 of the molar value.

Smiles text | pIC50
Cn1nc(N2CCCC2)nc1CCc1ccc2nc(Cl)cn2n1 | 6.47
CNC(=O)c1cc(OCCOC)ccc1NC(=O)c1nc(C2CC2)cnc1Nc1cncnc1 | 9.00
Cc1nc2ccc(C3CC3)nc2n2c(-c3cc(C4(O)CCOCC4)ccc3Cl)nnc12 | 5.57

Batch: pIC50 for all items listed.
1. CCc1ccc(C)n2nc(CCc3nc(-c4ccccc4)cn3CCCN)nc12
2. CCn1ncc(NC(=O)c2nc(C3CC3)cnc2Nc2cncnc2)c1C(=O)N(C)C

6.82
7.65

###

Here is a set of compounds with reported IC50 for UniProt:Q9Y233, compiled from the literature.
Answers are plain numbers, in nM.

Compound | Display unit | IC50
Cc1nc2cccnc2n2c(-c3cc(C4(O)CCOC4)ccc3Cl)nnc12 (single isomer, unassigned) | nM | 1560
Nc1nccn2c(N3CCCC4(CC4)C3)nnc12 | nM | 24100
CNC(=O)c1nn(C)cc1NC(=O)c1nc(C(C)(C)C)ncc1Nc1cncnc1 | nM | 3.4
Cc1nn2cc(C3CC3)cnc2c1C(=O)NC1(c2ccc(C(F)(F)F)nc2)CCOC1 (racemic) | nM | 5590
Cc1cccc2nc(CCc3nc(-c4cccs4)cn3C[C@@H](O)CNC(C)C)nn12 | nM | 46

Field: next compound
# lookup: IC50 of `Cc1c(C#N)nc2ccc(OCc3nc(-c4ccccc4)cn3C)nn12`
23.7

###

Here is a set of compounds with reported pIC50 for human PDE10A2 (Homo sapiens (Human), UniProt Q9Y233), compiled from the literature.
One number for each entry, as −log10 of the molar value.

Batch: pIC50 for all items listed.
1. Cn1ncc(C(=O)N2CCCC2)c1C(=O)Nc1ccc2nc(N3CCOCC3)nn2c1
2. CN(CC#N)C(=O)c1cnn(C)c1C(=O)Nc1ccn2cc(-c3ccccc3)nc2n1

[7.81, 7.88]

Batch: pIC50 for all items listed.
1. CCc1ccc(C)n2nc(CCc3ccc4cc(F)ccc4n3)nc12
2. CCN(C)C(=O)c1cnn(C)c1C(=O)Nc1ccn2cc(-c3cccc(OCCF)c3)nc2n1

[7.60, 8.21]

###

Here is a set of molecules with reported pIC50 for human PDE10A2 (Homo sapiens (Human), UniProt Q9Y233), compiled from the literature.
One number for each entry, as −log10 of the molar value.

Example cases with answers are listed next.
Molecule | Target system | pIC50
CC1COCCN1C(=O)c1ncccc1NC(=O)c1nc(C2CC2)cnc1Nc1cncnc1 (stereo not drawn) | human PDE10A2 (Homo sapiens (Human), UniProt Q9Y233) | 7.50
CCCNC(=O)c1cnn(C)c1C(=O)Nc1ccn2cc(-c3ccccc3)nc2n1 | human PDE10A2 (Homo sapiens (Human), UniProt Q9Y233) | 7.64

Batch: pIC50 for all items listed.
1. CCc1ccc(NC(=O)c2nc(C3CC3)cnc2Nc2cncnc2)c(C(=O)NCC(C)(C)O)n1
2. Cc1cc(C)n2nc(/C=C/c3nc(N(C)C4CC4)nn3C)nc2n1
3. Cc1cc(CCc2nc(-c3ccccn3)cn2C)nn2c(C)c(C(F)(F)F)nc12
4. Cn1ncc(C(=O)N2CCCC2)c1C(=O)Nc1ccc2nc(-c3ccccc3)nn2c1
5. Cn1cc(-c2cncs2)nc1/C=C/c1nc2c(F)cccn2n1
6. CC1(C)C(=O)N([C@H]2C[C@H](Oc3nc4ccccc4s3)C2)c2nccnc21
7. O=c1n(C2CC2)c2cccnc2n1[C@H]1C[C@H](Nc2nc3ccc(F)cc3s2)C1

1: 9.40; 2: 7.24; 3: 8.43; 4: 8.92; 5: 6.52; 6: 8.75; 7: 9.17

###

Here is a set of compounds with reported IC50 for human PDE10A2 (Homo sapiens (Human), UniProt Q9Y233), compiled from the literature.

Compound | IC50
Cn1ncc(-c2nc(C(F)F)c(Cl)s2)c1C(=O)NC1CCn2cc(-c3ccccc3)nc2C1 (centres unmarked) | < 5 nM

Batch: IC50 for all items listed.
1. Cc1cc(C)n2cc(CCc3ccc4ccccc4n3)nc2n1
2. Cc1nc2ccc(C3CC3)nc2n2c(-c3cc(C4(O)CCC4)ccc3F)nnc12
3. Cc1c(C(F)F)nc2ccc(C#Cc3nc(N4CCCC4)nn3C)nn12
4. Cc1ncc(C)n2nc(/C=C/c3nc(N(C)CC4CC4)nn3C)nc12

1. 310 nM
2. 565 nM
3. 5 nM
4. 79.3 nM

###

Here is a set of molecules with reported IC50 for human PDE10A2 (Homo sapiens (Human)), compiled from the literature.
Answers are plain numbers, in nM.

Batch: IC50 for all items listed.
1. Cc1ncc(C)n2nc(CCc3nc(N4CCCCC4)nn3C)nc12
2. Cc1nc2cccnc2n2c(-c3cc(OCC4CCOC4)ccc3Cl)nnc12 (stereo not drawn)
3. O=C(Nc1ccn2cc(-c3ccccc3)nc2n1)c1nn[nH]c1C(=O)NC1COC1
4. O=C(Nc1cc(-c2ccccn2)nn1CC(F)(F)F)c1nc(C2CC2)ccc1Nc1cncnc1

[31.6, 7330, 151, 2]

Batch: IC50 for all items listed.
1. CNC(=O)c1cnn(C)c1C(=O)Nc1ccn2cc(-c3cccc(Cl)c3)nc2n1
2. Cc1ncc(C)n2nc(CCc3ccc4cc5c(cc4n3)OC(F)(F)O5)nc12
3. Cc1c(Cl)cc(C(C)(C)O)c2nc(CCc3nc(N4CCCC4)nn3C)nn12

[22.8, 520, 76.3]
